protocol: cell viability loss over short exposure – CellTiter-Glo, 3 h, dry powder, cytotoxicity control for SR-BI HDL uptake inhibitor project, dose response (AID 540246)
particulars: ldlA[mSR-BI] CHO cells viability, CellTiter-Glo ATP, 3 h; at 35 µM (top of the series)
assayMetric: activity change, negative = cytotoxicity (%)

INSERT INTO results (molecule, assaymetric, experimentalvalue) VALUES
  ('O=C(Nc1ccc(-c2nc3ccc(NC(=O)c4ccccc4[N+](=O)[O-])cc3[nH]2)cc1)c1ccccc1[N+](=O)[O-]', 'activity change, negative = cytotoxicity', 6.25),
  ('C[C@@H]1CN([C@H](C)CO)C(=O)c2cc(NC(=O)Cc3cn(C)c4ccccc34)ccc2O[C@H]1CN(C)S(=O)(=O)c1ccccc1', 'activity change, negative = cytotoxicity', 1.67),
  ('C[C@H](CO)N1C[C@H](C)[C@H](CN(C)S(=O)(=O)c2ccc(F)cc2)Oc2ccc(NC(=O)Cc3ccccc3)cc2C1=O', 'activity change, negative = cytotoxicity', 2.52),
  ('CC(C)(C)NC(=O)N1CCN(c2ncccc2C(F)(F)F)CC1', 'activity change, negative = cytotoxicity', 5.12),
  ('C[C@H](CO)N1C[C@H](C)[C@H](CN(C)S(=O)(=O)c2ccc(F)cc2)Oc2ccc(NS(C)(=O)=O)cc2C1=O', 'activity change, negative = cytotoxicity', -0.83),
  ('O=C(Nc1ccccc1Cl)c1ccccc1NS(=O)(=O)c1ccccc1', 'activity change, negative = cytotoxicity', 0.062),
  ('C[C@@H]1CN([C@H](C)CO)C(=O)c2cc(NC(=O)Cc3cn(C)c4ccccc34)ccc2O[C@H]1CN(C)C(=O)Nc1ccc(F)cc1', 'activity change, negative = cytotoxicity', 0.369),
  ('COc1cccc(-c2csc(N3CCN(C(=S)Nc4cccc(Cl)c4)CC3)n2)c1', 'activity change, negative = cytotoxicity', -1.79),
  ('C[C@H]1CN([C@@H](C)CO)C(=O)c2cccc(NC(=O)Nc3ccccc3)c2O[C@@H]1CN(C)C', 'activity change, negative = cytotoxicity', -3.85),
  ('COc1ccc(OC)c(CCNC(=O)c2ccc3c(c2)N(Cc2ccc(F)cc2)CCS3)c1', 'activity change, negative = cytotoxicity', -8.19),
  ('COC(=O)c1cn(C(=O)c2cccc3ccccc23)c2ccccc12', 'activity change, negative = cytotoxicity', -9.72),
  ('C[C@H]1CN([C@@H](C)CO)C(=O)c2cccc(NS(C)(=O)=O)c2O[C@@H]1CN(C)Cc1ccc(Cl)c(Cl)c1', 'activity change, negative = cytotoxicity', 7.9),
  ('C[C@H]1CN([C@@H](C)CO)C(=O)c2cccc(NC(=O)Nc3ccccc3)c2O[C@@H]1CN(C)Cc1ccc(C(F)(F)F)cc1', 'activity change, negative = cytotoxicity', 0.509),
  ('Cc1cc(C)c2c(c1)NC(c1cc3c(cc1Br)OCO3)C1CC=CC21 (configuration not stated)', 'activity change, negative = cytotoxicity', -1.84),
  ('CCOC(=O)N1CCC(NC(=O)c2ccc3c(c2)N(Cc2ccc(F)cc2)CCS3)CC1', 'activity change, negative = cytotoxicity', -2.37),
  ('C[C@H](CO)N1C[C@H](C)[C@@H](CN(C)S(=O)(=O)c2ccc(F)cc2)Oc2ccc(NC(=O)Cc3cn(C)c4ccccc34)cc2C1=O', 'activity change, negative = cytotoxicity', 4.04),
  ('CCn1c(COc2c(C)cccc2C)nnc1SCC(=O)N1CCN(c2ccccc2)CC1', 'activity change, negative = cytotoxicity', -2.44);

Data provenance is PubChem BioAssay AID540246.
